Where do the numbers come from? From paper PMC12079475.

Molecular target: SARS‐CoV‐2 Nsp15 (Severe acute respiratory syndrome coronavirus 2, UniProt P0DTD1)
Experiment: biochemical
Conditions: 1 mM DTT buffer; confidence interval in brackets; read-out: IC50 + DTT (μM) (CI in μM)
Where a name gives a salt, the structure may show the parent alone.
measured-parameter: log10 of IC50 (log10 of the value in µM)
On a log10 scale: recorded IC50, unit µM.

COc1cc2c(NC3CCN(C)CC3)nc(N3CCCN(C)CC3)nc2cc1OCCCN(C)C ... 0.41
COc1cc2c(NC3CCN(C(C)C)CC3)nc(N3CCC(F)(F)CC3)nc2cc1OCCCN1CCCC1 ... 0.80
COc1cccc(C=NCCN=Cc2cccc(OC)c2[O-])c1[O-].[Cl-].[Mn+3] ... 0.52

[in] Request: log10 of IC50, test system SARS‐CoV‐2 Nsp15 (Severe acute respiratory syndrome coronavirus 2, UniProt P0DTD1), entry COc1cc2c(NC3CCN(C(C)C)CC3)nc(C3CCCCC3)nc2cc1OCCCN1CCCC1
[out] 0.45

[in] Query log10 of IC50 on SARS‐CoV‐2 Nsp15 (Severe acute respiratory syndrome coronavirus 2, UniProt P0DTD1) for C/C(=N\NC(=N)N)c1cc(NC(=O)CCCCCCCCC(=O)Nc2cc(/C(C)=N/NC(=N)N)cc(/C(C)=N/NC(=N)N)c2)cc(/C(C)=N/NC(=N)N)c1
[out] -0.22

[in] Look up log10 of IC50 with SARS‐CoV‐2 Nsp15 (Severe acute respiratory syndrome coronavirus 2, UniProt P0DTD1) for this compound: Cc1[nH]c2ccc(F)cc2c1-c1nc2c3cccnc3c3ncccc3c2[nH]1
[out] 0.89

[in] Form field: log10 of IC50 recorded for CC1(C)CCC2=C(O1)C(=O)c1ccccc1C2=O with SARS‐CoV‐2 Nsp15 (Severe acute respiratory syndrome coronavirus 2, UniProt P0DTD1) (enter value)
[out] 0.34

[in] Lab note: need log10 of IC50 with SARS‐CoV‐2 Nsp15 (Severe acute respiratory syndrome coronavirus 2, UniProt P0DTD1) for entry COc1cc2c(NC3CCN(C4CCCCC4)CC3)nc(N3CCCN(C(C)C)CC3)nc2cc1OCCCN1CCCCC1 , please look it up.
[out] 0.15

[in] Fill in the recorded log10 of IC50 for this compound, with SARS‐CoV‐2 Nsp15 (Severe acute respiratory syndrome coronavirus 2, UniProt P0DTD1) as test system: O=C1C(Cl)=C(NCCN2CCOCC2)C(=O)c2ncccc21
[out] -0.30

[in] Observed log10 of IC50 on SARS‐CoV‐2 Nsp15 (Severe acute respiratory syndrome coronavirus 2, UniProt P0DTD1) for COc1cccc2c1C(=O)c1c(O)c3c(c(O)c1C2=O)C[C@@](O)(C(=O)CO)C[C@@H]3O[C@H]1C[C@H](N2CCO[C@H](OC)C2)[C@H](O)[C@H](C)O1 , please.
[out] 0.41

[in] Requested read-out log10 of IC50, target or system SARS‐CoV‐2 Nsp15 (Severe acute respiratory syndrome coronavirus 2, UniProt P0DTD1), entry CCCCCCCCN=c1ccn(CCCCCCCCCCn2ccc(=NCCCCCCCC)cc2)cc1 [Octenidine dihydrochloride]
[out] 0.58

[in] Identify the measured log10 of IC50 of CCOC(=O)CCNc1cc(N2CCc3ccccc3CC2)nc(-c2ccccn2)n1 [GSK J4 HCl] for SARS‐CoV‐2 Nsp15 (Severe acute respiratory syndrome coronavirus 2, UniProt P0DTD1).
[out] 0.74

[in] Value wanted: log10 of IC50 (SARS‐CoV‐2 Nsp15 (Severe acute respiratory syndrome coronavirus 2, UniProt P0DTD1)) of entry NCCNc1ccc(NCCN)c2c1C(=O)c1ccncc1C2=O [Pixantrone (dimaleate)]
[out] 0.72
